The entries below are paired with their reported self-cleavage.
B1: HDV Ribozyme (parent)
chain: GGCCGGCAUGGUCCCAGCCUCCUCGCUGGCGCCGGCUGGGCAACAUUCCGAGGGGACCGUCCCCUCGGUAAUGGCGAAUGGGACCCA

variants of: B1; assay: self-cleavage, relative activity (ratio to wild type); higher = more cleavage; co-transcriptional
Lab note: jot down the number only; don't add units.

Sample answers from the record:
- mutant-name: "G28U C63U"
  self-cleavage: 0.12
- mutant-name: "A42U G80C"
  self-cleavage: 0.166
- mutant-name: "G67U U69G"
  self-cleavage: 1.03
- mutant-name: "A42U G59U"
  self-cleavage: 0.595

I'd like to know its self-cleavage. The variant in question is U72C C85G
0.453

I'd like to know its self-cleavage. The variant in question is C18U C32A
0.166

I'd like to know its self-cleavage. The variant in question is C4G G39U
0.0346

I'd like to know its self-cleavage. The variant in question is G6C C19U
0.0773

I'd like to know its self-cleavage. The variant in question is U20C A71G
0.0978

I'd like to know its self-cleavage. The variant in question is G31U A45U
0.175

Measured values drawn from the RNAGym collection of RNA variant scans (doi:10.7554/elife.80360) for this set.
